Test: The drug is tested on Eubacterium hallii strain: DSM3353 for biotransformation. The drug concentrations were measured before and after a 12-h incubation by liquid-chromatography-coupled mass spectrometry (LC–MS)
Condition notes: anaerobutyricum hallii, 2 µM
Measure: Bacterial Biotransformation

The cases that follow already have their Bacterial Biotransformation on record.
Compound: COc1ccc2c(c1)c(CC(=O)O)c(C)n2C(=O)c1ccc(Cl)cc1 [INDOMETHACIN]
Bacterial Biotransformation: Compound NOT metabolized
--
Compound: C#C[C@]1(O)CC[C@H]2[C@@H]3CCC4=CC(=O)CC[C@@H]4[C@H]3CC[C@@]21CC [LEVONORGESTREL]
Bacterial Biotransformation: Compound NOT metabolized
--
Compound: O=C(O)CCC(=O)O.O=C(O[C@H]1CN2CCC1CC2)N1CCc2ccccc2[C@@H]1c1ccccc1 [SOLIFENACIN SUCCINATE]
Bacterial Biotransformation: Compound NOT metabolized
--
Compound: OCCOCCN1CCN(C2=Nc3ccccc3Sc3ccccc32)CC1 [QUETIAPINE]
Bacterial Biotransformation: Compound NOT metabolized
--
Compound: CN1C(=O)CCS(=O)(=O)C1c1ccc(Cl)cc1 (centres undefined) [CHLORMEZANONE]
Bacterial Biotransformation: Compound NOT metabolized
--
Compound: CN(C/C=C/C#CC(C)(C)C)Cc1cccc2ccccc12 [TERBINAFINE]
Bacterial Biotransformation: Compound NOT metabolized
--
Compound: CC(=O)SCC(Cc1ccccc1)C(=O)NCC(=O)OCc1ccccc1 (centres undefined) [RACECADOTRIL]
Bacterial Biotransformation: Compound NOT metabolized
--
Compound: CC(C)(C)N.CCC[C@H](N[C@@H](C)C(=O)N1[C@H](C(=O)O)C[C@@H]2CCCC[C@@H]21)C(=O)OCC [PERINDOPRIL ERBUMINE]
Bacterial Biotransformation: Compound NOT metabolized

Look at this compound and give its reported Bacterial Biotransformation. O=C1CC2(CCCC2)CC(=O)N1CCCCN1CCN(c2ncccn2)CC1 [BUSPIRONE]
Compound NOT metabolized

Continue with CN1CCN2c3ccccc3Cc3ccccc3C2C1 (centres undefined) [MIANSERIN]
Compound NOT metabolized

Continue with CCOC(=O)[C@H](CCc1ccccc1)N[C@@H](C)C(=O)N1[C@H](C(=O)O)C[C@H]2CCCC[C@@H]21 [TRANDOLAPRIL]
Compound NOT metabolized

Continue with CC#CCn1c(N2CCC[C@@H](N)C2)nc2c1c(=O)n(Cc1nc(C)c3ccccc3n1)c(=O)n2C [LINAGLIPTIN]
Compound NOT metabolized

Continue with CC(C)N(CCC(C(N)=O)(c1ccccc1)c1ccccn1)C(C)C.O=P(O)(O)O (centres undefined) [DISOPYRAMIDE PHOSPHATE]
Compound NOT metabolized

Continue with CCCc1nc(C(C)(C)O)c(C(=O)OCc2oc(=O)oc2C)n1Cc1ccc(-c2ccccc2-c2nnn[nH]2)cc1 [OLMESARTAN MEDOXOMIL]
Compound metabolized

Continue with CCOC(=O)[C@H](CCc1ccccc1)N[C@@H](C)C(=O)N1CCC[C@H]1C(=O)O.O=C(O)/C=C\C(=O)O [ENALAPRIL MALEATE]
Compound NOT metabolized

====

Test: The drug is tested on Coprococcus comes strain: ATCC27758 for biotransformation. The drug concentrations were measured before and after a 12-h incubation by liquid-chromatography-coupled mass spectrometry (LC–MS)
Format: ADME
Parameters: dose 2 uM, timepoint 0 vs 12 hours
Condition notes: 2 µM
Measure: Bacterial Biotransformation

The cases that follow already have their Bacterial Biotransformation on record.
Compound: CN1C(=O)CC(C)(c2ccccc2)C1=O (stereo not given) [METHSUXIMIDE]
Reported value: Compound NOT metabolized
//
Compound: CCCCc1nc(Cl)c(CO)n1Cc1ccc(-c2ccccc2-c2nn[nH]n2)cc1
Reported value: Compound NOT metabolized
//
Compound: CC(=O)Oc1ccc(C(c2ccc(OC(C)=O)cc2)c2ccccn2)cc1
Reported value: Compound metabolized
//
Compound: Nc1ccc(/N=N/c2ccccc2)c(N)n1
Reported value: Compound metabolized

# ---- query compound ----
Look at this compound and give its reported Bacterial Biotransformation. CCCC(C)(COC(N)=O)COC(=O)NC(C)C (stereo not given)
Compound NOT metabolized

====

Test: The drug is tested on Providencia stuartii strain: ATCC25827 for biotransformation. The drug concentrations were measured before and after a 12-h incubation by liquid-chromatography-coupled mass spectrometry (LC–MS)
Condition notes: 2 µM
Measure: Bacterial Biotransformation

The cases that follow already have their Bacterial Biotransformation on record.
Compound: CC(C)(C)NC[C@H](O)COc1nsnc1N1CCOCC1.O=C(O)/C=C\C(=O)O [TIMOLOL MALEATE]
Bacterial Biotransformation: Compound NOT metabolized
--
Compound: COc1cc2nc(N3CCN(C(=O)C4CCCO4)CC3)nc(N)c2cc1OC (centres undefined)
Bacterial Biotransformation: Compound NOT metabolized
--
Compound: CC(N)C12CC3CC(CC(C3)C1)C2 (centres undefined)
Bacterial Biotransformation: Compound NOT metabolized
--
Compound: Nc1ccc(/N=N/c2ccccc2)c(N)n1
Bacterial Biotransformation: Compound NOT metabolized
--
Compound: c1ccc([C@H]2CN3CCSC3=N2)cc1
Bacterial Biotransformation: Compound metabolized

Look at this compound and give its reported Bacterial Biotransformation. CC(=O)O[C@]1(C(C)=O)CC[C@H]2[C@@H]3C=C(C)C4=CC(=O)CC[C@]4(C)[C@H]3CC[C@@]21C [MEGESTROL ACETATE]
Compound metabolized

Continue with CC(O)(CS(=O)(=O)c1ccc(F)cc1)C(=O)Nc1ccc(C#N)c(C(F)(F)F)c1 (centres undefined) [BICALUTAMIDE]
Compound NOT metabolized

Continue with O=C(NC(Cc1cc(=O)[nH]c2ccccc12)C(=O)O)c1ccc(Cl)cc1 (centres undefined) [REBAMIPIDE]
Compound NOT metabolized

Continue with CC(Oc1c(Cl)cccc1Cl)C1=NCCN1 (centres undefined)
Compound metabolized

====

Test: The drug is tested on Bacteroides coprophilus strain: DSM18228 for biotransformation. The drug concentrations were measured before and after a 12-h incubation by liquid-chromatography-coupled mass spectrometry (LC–MS)
Condition notes: 2 µM
Measure: Bacterial Biotransformation

Compound: C[C@]12C=CC(=O)C=C1CC[C@@H]1[C@@H]2C(=O)C[C@@]2(C)[C@H]1CC[C@]2(O)C(=O)CO
Bacterial Biotransformation: Compound NOT metabolized

Compound: Br.CN1CCC[C@@H]1Cc1c[nH]c2ccc(CCS(=O)(=O)c3ccccc3)cc12 [ELETRIPTAN HYDROBROMIDE]
Bacterial Biotransformation: Compound NOT metabolized

Compound: O=C(O)c1cc(/N=N/c2ccc(S(=O)(=O)Nc3ccccn3)cc2)ccc1O
Bacterial Biotransformation: Compound NOT metabolized

Compound: CS(=O)(=O)O.O.O.O.O=C1Cc2cc(CCN3CCN(c4nsc5ccccc45)CC3)c(Cl)cc2N1 [ZIPRASIDONE MESYLATE]
Bacterial Biotransformation: Compound NOT metabolized

Compound: CN1C(=O)CC(C)(c2ccccc2)C1=O (stereo not drawn) [METHSUXIMIDE]
Bacterial Biotransformation: Compound NOT metabolized

Compound: COc1ccccc1OCCNCC(O)COc1cccc2[nH]c3ccccc3c12 (stereo not drawn)
Bacterial Biotransformation: Compound metabolized

Compound: N#Cc1ccc2[nH]cc(CCCCN3CCN(c4ccc5oc(C(N)=O)cc5c4)CC3)c2c1
Bacterial Biotransformation: Compound metabolized

# ---- query compound ----
Look at this compound and give its reported Bacterial Biotransformation. `Clc1cccc(Cl)c1N=C1NCCN1`
Compound metabolized

====

Condition notes: bacteroides stercoris, 12 h, 2 µM
Description: The drug is tested on Bacteroides stercoris strain: ATCC43183 for biotransformation. The drug concentrations were measured before and after a 12-h incubation by liquid-chromatography-coupled mass spectrometry (LC–MS)
Measure: Bacterial Biotransformation

The cases that follow already have their Bacterial Biotransformation on record.
Compound: COC1=C(OC)C(=O)C(CCCCCCCCCCO)=C(C)C1=O
Bacterial Biotransformation: Compound NOT metabolized

Compound: CCC(=O)NCC[C@@H]1CCc2ccc3c(c21)CCO3
Bacterial Biotransformation: Compound metabolized

Compound: COc1cc2c(c(OC)c1OC)-c1ccc(OC)c(=O)cc1[C@@H](NC(C)=O)CC2
Bacterial Biotransformation: Compound metabolized

Compound: COc1ccc2c(c1OC)C(=O)O[C@@H]2[C@H]1c2c(cc3c(c2OC)OCO3)CCN1C
Bacterial Biotransformation: Compound metabolized

Compound: COc1cc(NC(C)CCCN)c2ncccc2c1.O=P(O)(O)O.O=P(O)(O)O (centres undefined) [PRIMAQUINE PHOSPHATE]
Bacterial Biotransformation: Compound NOT metabolized

Compound: CC(=O)OCC(=O)[C@@]1(OC(C)=O)[C@@H](C)C[C@H]2[C@@H]3C[C@H](F)C4=CC(=O)C=C[C@]4(C)[C@@]3(F)[C@@H](O)C[C@@]21C [DIFLORASONE DIACETATE]
Bacterial Biotransformation: Compound metabolized

Look at this compound and give its reported Bacterial Biotransformation. Br.COc1ccc2c(c1)[C@]13CCCC[C@@H]1[C@H](C2)N(C)CC3.O [DEXTROMETHORPHAN HYDROBROMIDE]
Compound NOT metabolized

Continue with `OCCN1CCN(CCCN2c3ccccc3Sc3ccc(C(F)(F)F)cc32)CC1`
Compound metabolized

Continue with CC(C)NCC(O)COc1ccc(COCCOC(C)C)cc1.CC(C)NCC(O)COc1ccc(COCCOC(C)C)cc1.O=C(O)/C=C/C(=O)O (centres undefined) [BISOPROLOL FUMARATE]
Compound NOT metabolized
